Reference for the values: patent US8258149B2

Task for the reader: assign each of the following molecules its reported fold induction at 1 µM.
test system: L6 myotubes; experiment: Glucose uptake (2-deoxy-D-[3H]glucose) in L6 myotubes, effectiveness in muscular glucose utilization; assay type: cell-based; conditions: Rattus norvegicus; L6 myotubes treated with compound 2 hours; 1 uM
No unit in the answer, only the number.

Per the record, CCC1(CC)c2c(ccc(OC)c2OC)C=C2c3cc4c(cc3CCN21)OCO4 [Example 28] has fold induction at 1 µM of 1.47

Per the record, C=CC1c2c(ccc(OC)c2OC)C=C2c3cc4c(cc3CCN21)OCO4 (centres unmarked) [Example 3] has fold induction at 1 µM of 1.16

Per the record, COc1ccc2c(c1OC)C(C)(C)N1CCc3cc4c(cc3C1C2Cc1ccccn1)OCO4 (centres unmarked) [Example 24] has fold induction at 1 µM of 1.11

Per the record, C=CCC1=C2c3cc4c(cc3CCN2C(C(=C)C)c2c1ccc(OC)c2OC)OCO4 (centres unmarked) [Example 13] has fold induction at 1 µM of 0.94

Per the record, COc1ccc2c(c1OC)C(C)(C)N1CCc3cc4c(cc3C1=C2Cc1ccccc1)OCO4 [Example 18] has fold induction at 1 µM of 1.19

Per the record, C=C(C)C1c2c(ccc(OC)c2OC)C(CC)=C2c3cc4c(cc3CCN21)OCO4 (centres unmarked) [Example 10] has fold induction at 1 µM of 1.05

Per the record, COc1ccc2c(c1OC)C1(CCCC1)N1CCc3cc4c(cc3C1=C2)OCO4 [Example 20] has fold induction at 1 µM of 1.2

Per the record, C=CCC1(CC=C)c2c(ccc(OC)c2OC)C=C2c3cc4c(cc3CCN21)OCO4 [Example 17] has fold induction at 1 µM of 1.34
